# Tested on: SNB-75 CNS
# protocol: NCI-60 one-dose screen, 48 h (100 = growth as untreated, 0 = no growth, -100 = all killed)
# cond: 10 µM
# Procedure: Growth inhibition of the SNB-75 human tumor cell line is measured as a screen for anti-cancer activity. Cells are grown in 96 well plates and exposed to the test compound for 48 hours. Compounds are tested at a single concentration, which is 10^-5 M for most compounds. The reported endpoint is percent growth (GI% or GIPRCNT), where numbers from 0 - 100% represent growth inhibition, and numbers from -100% - 0 represent cell death. For example, a value of 40 represents 60% growth inhibition. […]
The panel holds about 83,000 compounds, 20% with a hit somewhere; the sample as a whole holds those more often.
The molecules listed here are annotated with their growth.
test.readout: growth (%)

1. NC(N)=N/N=C(\N=Nc1ccccc1)c1ccc(Cl)cc1	60.6
2. O=C(Nc1ccc2c(O)cc(S(=O)(=O)O)cc2c1)c1ccc([N+](=O)[O-])cc1	99.6
3. NS(=O)(=O)Oc1ccc(-c2ccc3sccc3c2)cc1	97.3
4. CS(=O)(=O)c1nccc(-c2c(-c3ccc(OCCc4ccccc4)cc3)nc3sccn23)n1	89.1
5. COc1cccc(-c2nc3sccn3c2-c2cccc(S(C)(=O)=O)c2)c1	95.1
6. O=C(CCCCNC(=O)c1nc(-c2ccccc2)n(-c2ccccc2)n1)NO	70.8
7. COc1cccc(N=Nc2cccc(OC)c2)c1	102
8. COc1ccc(C2=Cn3c(CCC(=O)c4nc5ccccc5[nH]4)nnc3SC2)cc1	110
9. O=C1OC(C(Cl)(Cl)Cl)OC1C(Cl)(Cl)Cl (centres undefined)	104
10. O=[N+]([O-])c1ccc(NCSc2ccc(Cl)cc2)cc1	98.6
11. COc1ccc2c(c1)CC=C1[C@@H]2CC[C@]2(C)C(=O)/C(=N/O)C[C@@H]12	58
12. CCOC(=O)c1cc(C(=O)c2cc(OC)c(OC)c(OC)c2)n2ncc3ccccc3c12	79.5
13. IC(I)I	90.8
14. COc1cc2c3c(n([C@@H]4CCOC4)c(=O)c2cc1OC)-c1cc2c(cc1C3=O)OCO2	38
15. CCN(CC)CCCC(C)Nc1c2ccc(Cl)cc2nc2ccc(OC)cc12 (centres undefined)	16.3
16. CNC(=O)c1cn2c3c(c(N4CCN(C)CC4)c(F)cc3c1=O)OC[C@@H]2C	84.1
17. CC1/C=C/C=C/C=C/C=C/C=C/C=C/C=C/C(O[C@@H]2O[C@H](C)[C@H](O)[C@@H](O)[C@@H]2N)CC(O)C(C(=O)O)C(O)CC(=O)CC(O)CC(O)CC(O)CC(=O)CCCC(=O)CC(=O)OC1C(C)CC(C)C(O)CC(=O)c1ccc(N)cc1 (some centres undefined)	-96.6
18. CC[C@@H](C(=O)[C@H](C)[C@H](O)[C@@H](C)[C@H]1O[C@H]([C@@H](CC)C(=O)N(CC)CC)CC[C@H]1C)C1O[C@]2(C=C[C@@H](O)[C@]3(CC[C@@](C)([C@H]4CC[C@](O)(CC)[C@H](C)O4)O3)O2)[C@H](C)C[C@@H]1C (some centres undefined)	6.47
19. O=C(CCn1cnc2c(cc(-c3ccccc3)n2-c2ccccc2)c1=O)Nc1ccc(F)cc1	4.9

----------
# Tested on: SK-OV-3 ovarian
# protocol: NCI-60 one-dose screen, 48 h (100 = growth as untreated, 0 = no growth, -100 = all killed)
# cond: 10 µM
# Method: Growth inhibition of the SK-OV-3 human tumor cell line is measured as a screen for anti-cancer activity. Cells are grown in 96 well plates and exposed to the test compound for 48 hours. Compounds are tested at a single concentration, which is 10^-5 M for most compounds. The reported endpoint is percent growth (GI% or GIPRCNT), where numbers from 0 - 100% represent growth inhibition, and numbers from -100% - 0 represent cell death. For example, a value of 40 represents 60% growth inhibition. […]
About 83,000 compounds went through this panel and 20% of them were active in at least one assay; those are over-represented in the sample as a whole.
test.readout: growth (%)

1. CCCc1cn(CC(=O)Nc2nc3ccccc3s2)nn1	110
2. O=C(CN(C1CCCCC1)C1CCCCC1)Nc1ccc(S(=O)(=O)c2ccc(NC(=O)CN(C3CCCCC3)C3CCCCC3)cc2)cc1	76.6
3. Cc1ccc(C2NC(=S)N3C(c4ccc(C)cc4)NC(=S)N23)cc1 (stereo not given)	49
4. Cc1ccc(-n2c(C)nn3c(=O)c4c5c(sc4nc23)CN(C)CC5)cc1	95.1
5. COc1ccc(-c2cc(-c3ccccc3)nc(SCCCC(=O)NO)n2)cc1	-20.5

----------
# Test system: SF-268 CNS
# protocol: NCI-60 one-dose screen, 48 h (100 = growth as untreated, 0 = no growth, -100 = all killed)
# cond: 10 µM
About 83,000 compounds went through this panel and 20% of them were active in at least one assay; those are over-represented in the sample as a whole.
Short version: growth at least 80% is 1.0, less is 0.0.

1. COc1cc(-c2ccc(N=Nc3ccc4c(S(=O)(=O)O)ccc(N)c4c3O)c(OC)c2)ccc1N=Nc1ccc2c(S(=O)(=O)O)ccc(N)c2c1O	1.0
2. Cc1ccc2nc(Cl)c(-c3nc4ccccc4o3)cc2c1	1.0
3. CC1C(=NC(=O)c2cnccn2)C(C)C(c2ccc(Cl)cc2)NC1c1ccncc1 (stereo unspecified)	1.0
4. CCCCCC(=O)O[C@]1(C(C)=O)CCC2C3CCC4=CC(=O)CC[C@]4(C)C3CC[C@@]21C (stereo partly specified)	0.0
5. CCn1c(SCc2ccc(C)cc2)nnc1-c1nn(-c2ccc(Cl)cc2Cl)c(-c2ccc(Cl)cc2)c1C	0.0
6. COc1cccc(CNc2cccc3cn[nH]c23)c1O	1.0
7. COc1ccc(CCN2CCC(Nc3nc4ccccc4n3Cc3ccc(F)cc3)CC2)cc1	0.0
8. Cc1[nH]c2ccccc2c1/C=N/Nc1ncnc2sc3c(c12)CCN(CC(=O)OC(C)(C)C)C3	1.0
9. Cc1ccc(C2=NN(c3ccc(S(C)(=O)=O)cc3)C(=O)CC2)cc1	0.0
10. CN(C)CCCOc1ccccc1NC1=C(Cl)C(=O)C(Nc2ccccc2OCCCN(C)C)=C(Cl)C1=O	0.0
11. COc1ccc(C(=O)c2ccccc2CN2C(=O)c3ccccc3C2=O)cc1	1.0
12. COc1ccccc1N1CCCSC1=Nc1ccccc1	1.0
13. COc1ccc2cc(-c3nc4ccccc4s3)c(Cl)nc2c1OC	1.0
14. Cc1ccc(C2NC(=S)N3C(c4ccc(C)cc4)NC(=S)N23)cc1 (stereo unspecified)	0.0
15. COc1cccc(N=Nc2cccc(OC)c2)c1	1.0
16. CN(C)CCCOc1ccc(OCCCN(C)C)c2c1C(=O)c1ccccc1C2=O	0.0
17. C#CC(C)(O)[C@@H]1C[C@H](CC(=O)O)C1(C)C (stereo partly specified)	1.0
18. C=C/C(C)=C/C[C@]1(C)[C@H](C)[C@@H](OC(=O)CCC)[C@H](O)[C@@]23C(=C[C@H](OC)C[C@@H]12)[C@@H](OC(=O)CCC)O[C@H]3OC(C)=O	0.0
19. C/C(=N\O)c1ccc(NC(=O)CSc2nnc(-c3ccccc3)n2-c2ccccc2)cc1	1.0
20. Cc1ccc(C(=O)/C=C/c2ccccc2)s1	1.0
21. NC1=CC(=O)C(=O)c2cccnc21	1.0
22. Cc1c[nH]c(=O)n(Cc2nnc(CCC(=O)c3nc4ccccc4[nH]3)o2)c1=O	0.0
23. COc1ccc(-c2nn(-c3cccc(Cl)c3)cc2C=C(C#N)C#N)cc1	0.0
24. O=c1cn[nH]c2ccc(Br)cc12	1.0
25. CC(=O)N[C@H](C(=O)N[C@@H](CCCNC(=N)N)C(=O)N[C@@H](CCCCN)C(=O)N[C@@H](CCCNC(=N)N)C(=O)NC(C(=O)N[C@@H](CC(C)C)C(=O)N[C@@H](CCCNC(=N)N)C(=O)N[C@@]1(C)CCC/C=C\CCC[C@@](C)(C(=O)N[C@@H](CCCNC(=N)N)C(=O)N[C@@H](CCC(=O)O)C(=O)N[C@@H](CC(C)C)C(=O)N[C@H](C(=O)N[C@@H](CCC(=O)O)C(N)=O)C(C)C)NC(=O)[C@H](CCC(N)=O)NC(=O)[C@H](CC(C)C)NC(=O)[C@H](CC(C)C)NC1=O)[C@@H](C)O)C(C)C (stereo partly specified)	0.0
26. COc1cc(/C=C/c2cc(/C=C/c3ccc(O)c(OC)c3)n(C(=O)Nc3ccccc3Cl)n2)ccc1O	0.0
27. COc1cc(C)ccc1Oc1nc(Nc2ccc(N3CCOCC3)cc2)ncc1NC(=O)Nc1cc(C(F)(F)F)cc(C(F)(F)F)c1	0.0
28. CCCC1(CN2c3ccccc3Sc3ccc(Cl)cc32)CCN(CC)C1 (stereo unspecified)	0.0
29. CN(C)CCOc1ccc(-c2nc3sccn3c2-c2ccnc(S(C)(=O)=O)n2)cc1	1.0
30. CN(C)CCCN1c2ccccc2CCc2ccc(Cl)cc21	0.0
31. O=C(N/N=C/c1ccc(Cl)cc1)c1ccccc1Nc1cccc(C(F)(F)F)c1	1.0
32. Oc1cccc(-c2nc3sccn3c2-c2ccncn2)c1	1.0
33. CNC(=O)c1cn(C2CC2)c2cc(N3CCN(C(=O)c4cc(OC)c(OC)c(OC)c4)CC3)c(F)cc2c1=O	1.0
34. O=C(COc1cccc(/C=C2\CSc3ccc(Cl)cc3C2=O)c1)c1ccc(Cl)cc1	1.0
35. CC(C)CCN(CCC(C)C)CC(=O)Nc1ccc(S(=O)(=O)c2ccc(NC(=O)CN(CCC(C)C)CCC(C)C)cc2)cc1	0.0
